Assignment: determine reported composite z-score for the given compounds.
- Test system: Sonic hedgehog protein (Shh)
- assay_method_text: Sonic hedgehog microarray binding compounds – biochemical, small-molecule microarray, 635/667 nm fluorescence, primary screen (AID 1151);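 also: Shh protein binding to compounds spotted on small-molecule microarray slides; score combines spot fluorescence intensity with signal-to-noise across triplicate slides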
- run_conditions: 635 nm fluorescence, higher = more signal
One number for each entry.

Example entries begin here.
# compound, recorded_number
records = [
    ("CN(C)CCCCNC(=O)[C@H]1C[C@H]2C(=O)N[C@@H](CCCC[N+](C)(C)C)C(=O)N2[C@H]1c1cccc(OCCO)c1", 2.01),
    ("COCCOC(=O)N1C(=O)[C@@]2(c3cc(C#CCCO)ccc31)[C@H](c1ccc(OCCO)cc1)N1[C@H](c3ccccc3)[C@H](c3ccccc3)OC(=O)[C@H]1[C@@H]2C(=O)N1CCc2cc(OC)c(OC)cc2C1", 1.37),
]

As a next step, examine the compound that follows.
Asked: composite z-score for C=C(C)[C@@H]1CC=C(C(O)C2C=CC3C(=O)N(C4CCCCC4)C(=O)C3N2Nc2ccc(OC)cc2)CC1 (stereo partly drawn) ?
Given back: 0.966
